Target: E. feacium DltA (Enterococcus faecium)
Sequence (Q3XZT7 1-504): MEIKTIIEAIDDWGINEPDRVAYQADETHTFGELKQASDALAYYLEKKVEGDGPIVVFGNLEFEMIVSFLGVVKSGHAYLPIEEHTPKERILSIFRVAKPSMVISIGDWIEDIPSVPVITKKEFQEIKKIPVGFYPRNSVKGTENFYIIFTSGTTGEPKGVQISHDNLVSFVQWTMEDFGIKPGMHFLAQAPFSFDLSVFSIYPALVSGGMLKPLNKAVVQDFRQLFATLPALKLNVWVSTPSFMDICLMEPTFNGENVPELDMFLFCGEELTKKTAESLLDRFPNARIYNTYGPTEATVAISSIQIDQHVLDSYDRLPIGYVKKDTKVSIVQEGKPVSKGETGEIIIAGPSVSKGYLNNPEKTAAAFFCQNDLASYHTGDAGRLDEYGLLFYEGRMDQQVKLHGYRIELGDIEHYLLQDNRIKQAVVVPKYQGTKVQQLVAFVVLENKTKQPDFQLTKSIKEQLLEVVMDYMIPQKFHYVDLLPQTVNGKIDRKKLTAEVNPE
Experiment: in vitro DltA activity assay (luminescence), E. faecium DltA
Format: biochemical
pIC50: −log10 of the molar value.

Compound	pIC50
NC(=O)c1c(OC[C@H]2CCCN2)cc(-c2ccc3c(c2)ncn3[C@@H]2CCCC[C@H]2F)c2nc[nH]c12 [Example 214]	7.49

###

Molecular target: UniProtKB Q830N0
Sequence (Q830N0 1-506): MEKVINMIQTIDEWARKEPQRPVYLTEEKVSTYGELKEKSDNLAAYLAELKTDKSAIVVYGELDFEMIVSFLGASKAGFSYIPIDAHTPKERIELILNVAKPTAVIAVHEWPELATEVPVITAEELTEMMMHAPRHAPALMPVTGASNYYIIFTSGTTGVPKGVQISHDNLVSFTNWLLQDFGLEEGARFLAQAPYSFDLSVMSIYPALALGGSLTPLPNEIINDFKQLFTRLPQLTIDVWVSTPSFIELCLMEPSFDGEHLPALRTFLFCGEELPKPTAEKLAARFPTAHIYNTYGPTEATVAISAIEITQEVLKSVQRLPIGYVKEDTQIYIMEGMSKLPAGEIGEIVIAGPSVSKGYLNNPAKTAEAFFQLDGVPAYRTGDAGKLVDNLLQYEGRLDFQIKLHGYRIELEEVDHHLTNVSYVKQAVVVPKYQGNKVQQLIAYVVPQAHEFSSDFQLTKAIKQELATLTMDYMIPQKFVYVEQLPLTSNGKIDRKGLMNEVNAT
Test: in vitro DltA activity assay (luminescence), E. faecalis DltA
Assay type: biochemical

Compound	IC50 (nM)
NC(=O)c1c(OC[C@H]2CCCN2)cc(-c2ccc3c(c2)ncn3[C@@H]2CCCC[C@H]2F)c2nc[nH]c12 [Example 214]	4
